These measurements were taken from patent US20130230533A1.

In this section we review reported Kd values for a set of binders.
Target: T1, Dimeric monkey CD48-mFc (monkey)
T1 construct: Soluble monkey CD48 with a C-terminal Fc fusion [mFc]; the whole entry is the construct
T1 chain: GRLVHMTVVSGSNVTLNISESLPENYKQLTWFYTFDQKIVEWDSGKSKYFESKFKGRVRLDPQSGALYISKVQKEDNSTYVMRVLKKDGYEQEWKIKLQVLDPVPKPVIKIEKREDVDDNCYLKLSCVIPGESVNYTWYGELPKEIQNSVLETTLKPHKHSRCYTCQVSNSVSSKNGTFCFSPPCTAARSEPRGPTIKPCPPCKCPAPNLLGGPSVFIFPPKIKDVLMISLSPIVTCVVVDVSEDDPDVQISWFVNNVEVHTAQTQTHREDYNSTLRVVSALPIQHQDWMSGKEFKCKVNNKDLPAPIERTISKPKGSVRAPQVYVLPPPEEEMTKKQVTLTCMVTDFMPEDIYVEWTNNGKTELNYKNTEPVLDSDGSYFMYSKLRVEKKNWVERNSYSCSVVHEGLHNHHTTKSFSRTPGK
Assay: SPR (Biacore), antibody captured by anti-Fc, CD48 in solution, 25 C
Respond with the bare value in nM.

The cases that follow already have their Kd on record.
H4H1770P (antibody, human IgG4, V domains shown, Human IgG4 Fc (H4H)) VH: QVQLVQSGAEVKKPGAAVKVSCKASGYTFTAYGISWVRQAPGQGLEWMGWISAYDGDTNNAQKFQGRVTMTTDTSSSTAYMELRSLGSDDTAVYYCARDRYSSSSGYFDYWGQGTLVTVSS VL: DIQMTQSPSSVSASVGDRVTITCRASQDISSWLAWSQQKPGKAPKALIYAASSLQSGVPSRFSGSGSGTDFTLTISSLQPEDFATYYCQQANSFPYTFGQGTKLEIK :: 0.131
H4H1775P (antibody, human IgG4, V domains shown, Human IgG4 Fc (H4H)) VH: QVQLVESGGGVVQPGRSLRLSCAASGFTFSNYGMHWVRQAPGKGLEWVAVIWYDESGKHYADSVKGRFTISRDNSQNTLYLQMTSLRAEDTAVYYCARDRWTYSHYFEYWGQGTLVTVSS VL: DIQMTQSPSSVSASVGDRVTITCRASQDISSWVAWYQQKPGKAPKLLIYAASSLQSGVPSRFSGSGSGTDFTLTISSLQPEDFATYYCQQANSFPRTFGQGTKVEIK :: 0.0135
H4H1781P (antibody, human IgG4, V domains shown, Human IgG4 Fc (H4H)) VH: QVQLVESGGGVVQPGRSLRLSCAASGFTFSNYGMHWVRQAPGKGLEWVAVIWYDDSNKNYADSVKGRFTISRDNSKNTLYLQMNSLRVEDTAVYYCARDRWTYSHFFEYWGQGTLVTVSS VL: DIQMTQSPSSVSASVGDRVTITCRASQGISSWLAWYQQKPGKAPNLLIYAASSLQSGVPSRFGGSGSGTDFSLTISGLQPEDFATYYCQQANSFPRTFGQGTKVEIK :: 0.0356
H4H1774P (antibody, human IgG4, V domains shown, Human IgG4 Fc (H4H)) VH: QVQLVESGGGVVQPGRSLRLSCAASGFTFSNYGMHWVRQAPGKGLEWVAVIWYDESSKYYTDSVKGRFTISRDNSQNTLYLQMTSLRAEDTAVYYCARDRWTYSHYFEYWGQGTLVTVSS VL: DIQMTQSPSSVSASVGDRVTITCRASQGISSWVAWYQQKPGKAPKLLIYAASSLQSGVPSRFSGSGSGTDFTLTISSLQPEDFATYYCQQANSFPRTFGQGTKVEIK :: 0.0525

Then there is this binder:
INPUT: Give the reported value of Kd for this record: H4H1763N (antibody, V domains shown, Human IgG4 Fc (H4H)) VH: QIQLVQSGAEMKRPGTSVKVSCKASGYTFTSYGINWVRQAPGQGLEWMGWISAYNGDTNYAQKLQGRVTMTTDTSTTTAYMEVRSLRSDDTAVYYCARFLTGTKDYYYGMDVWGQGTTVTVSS VL: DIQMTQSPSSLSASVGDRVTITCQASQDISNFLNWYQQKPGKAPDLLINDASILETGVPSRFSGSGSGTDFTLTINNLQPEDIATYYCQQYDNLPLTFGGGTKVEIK
OUTPUT: 0.0519
